# assay_details: HepG2 cytotoxicity, primary screen, cytotoxicity control for P. falciparum antimalarial project, cell-based, ATP luminescence (AID 2303);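 note: 0% = DMSO wells and 100% = digitonin-killed cells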
# condition_details: HepG2 viability, 24-48 h, at 10 µM
The source made the active and inactive calls.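 Rule for the calls: active = inhibition above 50%; inactive = the rest.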
Outcome codes: 1.0 (active), 0.0 (inactive)

# molecule, class_label
measured = [
    ("O=C(c1ccccc1)N(Cc1ccccc1-c1ccc(CNCCc2ccccc2)cc1)C1CCN(Cc2ccccc2)CC1", 1.0),
    ("COC(=O)c1cccc(OCCNC2CCN(C[C@H](O)c3ccnc4ccc(OC)cc34)CC2)c1", 0.0),
    ("Cn1ccnc1-c1nc2ccccn2c1NCC(=O)Nc1ccccc1N1CCCCC1", 0.0),
    ("Cc1cccc2[nH]c(-c3ccc(-c4cccc(NC(=O)CCc5cnc[nH]5)c4)cc3)nc12", 0.0),
    ("NCCCNc1nc(Nc2cccc(C(N)=O)c2)c2c(=O)[nH]ccc2n1", 0.0),
    ("C=CCOc1cc(Cc2cnc(N)nc2N)cc(OC)c1OC", 0.0),
    ("CN(C)CCCN1C(=O)c2[nH]nc(-c3ccc(Cl)cc3O)c2C1c1ccc(Cl)cc1 (centres undefined)", 1.0),
    ("CCc1c(CCNCC/C=C/CCNCCc2ccc(OC)c(OC)c2CC)ccc(OC)c1OC", 0.0),
    ("COc1ccc2nccc([C@@H](O)CN3CCC(NCc4cnc5c(c4)NC(=O)CS5)CC3)c2c1", 0.0),
    ("COc1cccc(Cc2cnc3nc(N)nc(N)c3c2C)c1", 1.0),
    ("Cc1cccc2[nH]c(-c3ccc(-c4ccc(CN5CCCC(O)C5)cc4)s3)nc12 (centres undefined)", 0.0),
    ("O=[N+]([O-])c1ccc(C=NNc2nc(Nc3ccccc3)nc(Nc3ccccc3)n2)o1", 0.0),
    ("CC(C)(C)NS(=O)(=O)c1cc(C(=O)N2CCC(CCN3CCC(C(=O)c4ccc(F)cc4)CC3)(c3cccc(F)c3)CC2)c(Cl)cc1F", 0.0),
    ("CC(C)(CNCc1ccccc1)c1nc(-c2ccc(Cl)c(O)c2)c(-c2ccncc2)[nH]1", 1.0),
    ("c1cncc(Oc2ccc(Nc3ccnc4cc(-c5cccc(CNCCN6CCOCC6)c5)ccc34)cc2)c1", 0.0),
    ("CN(C)CCN(C)Cc1nc(-c2ccc3c(Nc4ccc(Oc5ccccc5)cc4)ccnc3c2)cs1", 0.0),
    ("COc1ccc2nccc([C@@H](O)CN3CCC(NC(=O)C(=O)c4c[nH]c5c(C)cccc45)CC3)c2c1", 0.0),
    ("Fc1ccc(Nc2n[nH]c(CNC3CCN(Cc4ccc(Cl)c(Cl)c4)CC3)n2)cc1", 0.0),
    ("COc1ccc(NS(=O)(=O)c2ccc(Oc3nc(C)nc4sc5c(c34)CCCC5)cc2)cc1", 0.0),
]

* * *

# Tested on: R275C/beta2Delta
# assay_details: modulators of BK channel variants, profiling panel, selectivity assay, cell-based, U2OS BacMam, thallium flux, beta subunits (AID 1259406);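 note: initial slope of Thallos dye fluorescence rise after thallium is added; log ratio against the mean of 0.3% DMSO vehicle wells on the same plate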
# condition_details: at 30 µM
Non-standard residues stand in square brackets, D forms with d. Residues, ends and D or L forms follow the SMILES beside them. pGlu = O=C1CC[C@@H](C(=O)O)N1; Thz = O=C(O)[C@@H]1CSCN1
# key: entry, value: log fold change Tl+ flux

# compound, log fold change Tl+ flux
measured = [
    ("CN1[C@@H]2CCC[C@H]1CC(NC(=O)c1nn(C)c3ccccc13)C2 (stereo not given in full)", 0.0242),
    ("COCc1cc(=O)[nH]c(SCC(=O)c2ccc(-c3ccccc3)cc2)n1", 0.032),
    ("O=C(NC(=O)c1ccccc1Oc1ccc(Cl)cc1Cl)Nc1cc(Cl)cc(Cl)c1", 0.00447),
    ("O=c1[nH]c(=O)n(C2CC(O)C(CO)O2)cc1F (stereo not given)", 0.0028),
    ("Fc1ccc(CCc2ccc(F)cc2)cc1", 0.0454),
    ("COc1ccc(CCN=Cc2ccccn2)cc1OC", -0.0772),
    ("Cc1[nH]n(-c2c(Cl)cc(C(F)(F)F)cc2Cl)c(=O)c1N=Nc1ccccc1", 0.0171),
    ("C[C@H]1[C@@H](OC(=O)CCC(=O)O)O[C@@H]2OC3(C)CC[C@H]4[C@H](C)CC[C@@H]1[C@@]24OO3", 0.00454),
    ("COCC1=C(C(=O)OC(C)OC(=O)OC(C)C)N2C(=O)[C@@H](NC(=O)C(=NOC)c3csc(N)n3)[C@H]2SC1 (stereo not given in full)", 0.0293),
    ("CCOC(=O)CN(C=NC#N)c1ccc(OC)cc1", -0.0152),
    ("Cc1c(C(=O)NN2CCCCC2)nn(-c2ccc(Cl)cc2Cl)c1-c1ccc(I)cc1", -0.00675),
    ("CNCC[C@@H](Oc1ccccc1C)c1ccccc1", 0.125),
    ("Cc1cc(-c2nn(C)c(=O)c3ccccc23)cc(C)c1O", -0.0115),
    ("CS(=O)(=O)C(C#N)=NNc1ccc(OC(F)(F)F)cc1", 0.119),
    ("Cc1cc(Sc2nnc(N=CN(C)C)s2)c2ccccc2n1", 0.0658),
    ("CO[C@H]1/C=C/O[C@@]2(C)Oc3c(C)c(O)c4c(O)c(c(C=NN5CCN(C6CCCC6)CC5)c(O)c4c3C2=O)NC(=O)/C(C)=C\\C=C\\[C@H](C)[C@H](O)[C@@H](C)[C@@H](O)[C@@H](C)[C@H](OC(C)=O)[C@@H]1C", 0.0213),
    ("CCOC(=O)c1ccc(NC(=O)CCC(=O)O)cc1", -0.0108),
    ("CSc1cc(C(C)(C)C)[nH]n1", -0.014),
    ("CCCCc1nc(Cl)c(CO)n1Cc1ccc(-c2ccccc2-c2nnn[nH]2)cc1", 0.0215),
    ("S=c1sc2c(s1)SCC1(CS2)OCCO1", -0.0207),
    ("NC(Cc1cc(I)c(Oc2ccc(O)c(I)c2)c(I)c1)C(=O)O (stereo not given)", 0.136),
    ("CC(c1ccccc1)n1c(SCc2cc(=O)oc3cc(O)ccc23)n[nH]c1=O (stereo not given)", 0.123),
    ("CCCc1nc(C(C)(C)O)c(C(=O)O)n1Cc1ccc(-c2ccccc2-c2nn[nH]n2)cc1", 0.0191),
    ("CC(=NO)c1ccc2c(c1)C(C)(C)CCC2(C)C", -0.00725),
    ("CCSc1ccc(-c2noc(C(C)(C)C)n2)cn1", -0.0201),
    ("CCN(CC)CC#CCOC(=O)C(O)(c1ccccc1)C1CCCCC1 (stereo not given)", -0.0198),
    ("C[C@]12CC3CC(N)(C1)C[C@@](C)(C3)C2", -0.0288),
    ("O=C1CC[C@@H](C(=O)N2CSC[C@H]2C(=O)O)N1 ([pGlu]-[Thz]-OH)", -0.0226),
    ("C#Cc1cccc(NS(=O)(=O)c2ccc(Cl)c(Cl)c2)c1", 0.158),
    ("N#Cc1cccc(CSc2ncnc(N)n2)c1", 0.0122),
    ("Cc1c(Br)sc2sc(-c3ccnc(SCc4ccccc4)n3)c(C)c12", 0.0157),
    ("CC(COc1ccccc1Cc1ccccc1)N1CCCCC1 (stereo not given)", 0.0368),
    ("CCOC(=O)Cn1c(-c2c(Cl)cccc2Cl)noc1=O", 0.0184),
    ("Nc1ncnc2c1ncn2[C@@H]1O[C@H](CO)C[C@@H]1O", 0.0189),
    ("COc1cc(C(F)(F)F)nc2ccc(C#CCOC(=O)Nc3cccc(Cl)c3)cc12", -0.0125),
    ("C=CCc1ccc(O)c(-c2ccc(O)c(CC=C)c2)c1", 0.524),
    ("O=c1[nH]c2ccccc2c2ccccc12", 0.0385),
    ("CC1c2cccc(O)c2C(O)=C2C(=O)[C@]3(O)C(O)=C(C(N)=O)C(=O)[C@@H](N(C)C)[C@@H]3C[C@@H]21 (stereo not given in full)", -0.00508),
    ("C[n+]1ccccc1C=NO", 0.00623),
    ("NC(CS(=O)(=O)Cc1ccco1)=NO", -0.0186),
    ("CCC(C)n1ncn(-c2ccc(N3CCN(c4ccc(OCC5COC(Cn6cncn6)(c6ccc(Cl)cc6Cl)O5)cc4)CC3)cc2)c1=O (stereo not given)", 0.0172),
    ("NC(=O)CN1C(=O)C(=Cc2ccco2)N=C1c1ccccc1", -0.0538),
    ("O=C(NNc1c(Cl)cccc1Cl)c1csc(Cc2c(Cl)cccc2Cl)n1", 0.00139),
    ("CC(=CCC1=C(C)C(=O)c2ccccc2C1=O)CCCC(C)CCCC(C)CCCC(C)C (stereo not given)", 0.0188),
    ("CSc1nc2cc(Oc3cccc(Cl)c3Cl)c(Cl)cc2[nH]1", 0.248),
]
